# System: Faecalibacterium prausnitzii A2-165
# test name: MIC by CLSI broth microdilution, type strain
# Type: cell-based
# settings: test strain A2-165; breakpoints per antibiotic in c1-c3
measured attribute: MIC breakpoint class

Example entries and their recorded answers appear below.
compound: CCC[C@@H]1C[C@@H](C(=O)N[C@@H]([C@H]2O[C@H](SC)[C@H](O)[C@@H](O)[C@H]2O)[C@H](C)Cl)N(C)C1 [CLI, clindamycin]
MIC breakpoint class: (S)

compound: O=C(N[C@H](CO)[C@H](O)c1ccc([N+](=O)[O-])cc1)C(Cl)Cl [CHL, chloramphenicol]
MIC breakpoint class: (R)

compound: C[C@@H](O)[C@H]1C(=O)N2C(C(=O)O)=C(S[C@@H]3CN[C@H](C(=O)N(C)C)C3)[C@H](C)[C@H]12 [MEM, meropenem]
MIC breakpoint class: (R)

compound: CO/N=C(\C(=O)N[C@@H]1C(=O)N2C(C(=O)O)=CCS[C@H]12)c1csc(N)n1 [CTZ, ceftizoxime]
MIC breakpoint class: (I)

compound: COc1c(N2C[C@@H]3CCCN[C@@H]3C2)c(F)cc2c(=O)c(C(=O)O)cn(C3CC3)c12 [MXF, moxifloxacin]
MIC breakpoint class: (R)

Now consider the entry below.
According to the records, this compound Cc1ncc([N+](=O)[O-])n1CCO [MTZ, metronidazole] displays MIC breakpoint class of (S)
